# Tested on: β-Glucosidase (almond)
# Experiment summary: Beta-glucosidase (almond) inhibitor assay, pH 4.8
# Type: biochemical
# Reported conditions: 100 μM
Percent inhibition of β-glucosidase (almond) listing for selected compounds.
Respond with the bare value in %.

Please report the measured Percent inhibition of β-glucosidase (almond) for CCCCN1[C@H](CN)[C@@H](O)[C@H](O)[C@H]1CO
9.5

Please report the measured Percent inhibition of β-glucosidase (almond) for CCCCCCCCCN1C[C@H](Cl)[C@@H](O)[C@H](O)[C@H]1CO
33.1

Please report the measured Percent inhibition of β-glucosidase (almond) for CCCCNC(=O)O[C@H]1CN(CCCC)[C@H](CO)[C@@H](O)[C@@H]1O
4.3

Please report the measured Percent inhibition of β-glucosidase (almond) for CCCCN1[C@H](CO)[C@@H](O)[C@H](O)[C@H]1CSc1nnnn1C
7.5

Please report the measured Percent inhibition of β-glucosidase (almond) for CCCCN1C[C@H](C#N)[C@@H](O)[C@H](O)[C@H]1CO
1.6

***
Please report the measured Percent inhibition of β-glucosidase (almond) for CCCCN(CCCC)C[C@@H]1[C@@H](O)[C@H](O)[C@@H](CO)N1CCCC
10.9

Please report the measured Percent inhibition of β-glucosidase (almond) for CCCCN1C[C@H](Sc2nnnn2C)[C@@H](O)[C@H](O)[C@H]1CO
-0.9

Please report the measured Percent inhibition of β-glucosidase (almond) for CCCCCCN1C[C@H](Cl)[C@@H](O)[C@H](O)[C@H]1CO
43.7

---

# Tested on: β-Glucosidase (almond)
# Experiment summary: Beta-glucosidase (almond) inhibition assay, pH 7.4
# Type: biochemical
# Reported conditions: 1000 μM
Percent inhibition of β-glucosidase (almond) listing for selected compounds.
Respond with the bare value in %.

Please review the following examples before continuing.
Please report the measured Percent inhibition of β-glucosidase (almond) for CCCCCCCCCN1C[C@H](Cl)[C@@H](O)[C@H](O)[C@H]1CO [Example 29]
91.9

Please report the measured Percent inhibition of β-glucosidase (almond) for CCCCNC(=O)O[C@H]1CN(CCCC)[C@H](CO)[C@@H](O)[C@@H]1O [Example 36]
0.3

Please report the measured Percent inhibition of β-glucosidase (almond) for CCCCCCN1C[C@H](Cl)[C@@H](O)[C@H](O)[C@H]1CO [Example 28]
90

Please report the measured Percent inhibition of β-glucosidase (almond) for CCCCN1[C@H](CO)[C@@H](O)[C@H](O)[C@H]1CNC(C)=O [Example 51]
4.4

Query compound follows.
Please report the measured Percent inhibition of β-glucosidase (almond) for CCCCN(CCCC)C[C@@H]1[C@@H](O)[C@H](O)[C@@H](CO)N1CCCC [Example 49]
0.2

---

# System: visna virus
# Experiment summary: Inhibition of visna virus growth, plaque reduction assay in sheep choroid plexus (SCP) cells (Method A)
# Format: cell-based
# Reported conditions: Visna-maedi virus; 1.0 mM
inhibition at 1000 µM listing for selected compounds.
Respond with the bare value in %.

Please review the following examples before continuing.
Please report the measured inhibition at 1000 µM for CCCCN1C[C@H](OC(=O)OCC(C)C)[C@@H](O)[C@H](O)[C@H]1CO [Example 34]
100

Please report the measured inhibition at 1000 µM for CCCCN1C[C@H](Cl)[C@@H](O)[C@H](O)[C@H]1CO [Example 27]
99

Please report the measured inhibition at 1000 µM for CCCCN1C[C@H]2O[C@H]2[C@H](OC(C)=O)[C@H]1COC(C)=O [Example 45]
85

Please report the measured inhibition at 1000 µM for CCCCNC(=O)O[C@H]1CN(CCCC)[C@H](CO)[C@@H](O)[C@@H]1O [Example 36]
21

Query compound follows.
Please report the measured inhibition at 1000 µM for CCCCN1C[C@H](Cl)[C@@H](OC(C)=O)[C@H](OC(C)=O)[C@H]1COC(C)=O [Example 38]
97

---

# Measurement target: α-Glucosidase (yeast) (Saccharomyces cerevisiae, UniProt P53341)
# Construct: purchased Sigma
# Sequence (P53341 whole entry): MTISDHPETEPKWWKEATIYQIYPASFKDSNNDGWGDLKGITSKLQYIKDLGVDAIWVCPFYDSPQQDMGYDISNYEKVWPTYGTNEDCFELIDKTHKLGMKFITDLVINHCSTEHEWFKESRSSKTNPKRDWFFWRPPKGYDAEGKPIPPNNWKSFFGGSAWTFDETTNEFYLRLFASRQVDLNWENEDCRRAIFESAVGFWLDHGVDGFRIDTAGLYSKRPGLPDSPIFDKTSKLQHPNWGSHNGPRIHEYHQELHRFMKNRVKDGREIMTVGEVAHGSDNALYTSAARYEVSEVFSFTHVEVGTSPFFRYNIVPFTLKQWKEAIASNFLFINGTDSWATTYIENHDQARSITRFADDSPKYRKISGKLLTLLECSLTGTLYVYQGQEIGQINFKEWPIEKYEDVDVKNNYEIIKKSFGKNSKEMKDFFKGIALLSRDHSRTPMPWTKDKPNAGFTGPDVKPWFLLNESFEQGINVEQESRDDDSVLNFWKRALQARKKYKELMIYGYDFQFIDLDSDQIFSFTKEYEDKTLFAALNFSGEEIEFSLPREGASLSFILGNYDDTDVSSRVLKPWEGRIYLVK
# Experiment summary: Alpha-glucosidase (yeast) inhibition assay, pH 7.4
# Type: biochemical
# Reported conditions: 1000 μM, pH 7.4; read-out: Percent inhibition of α-glucosidase (yeast)
Value type: inhibition at 1000 µM (%)
Respond with the bare value in %.

Please report the measured inhibition at 1000 µM for CCCCNC(=O)O[C@H]1CN(CCCC)[C@H](CO)[C@@H](O)[C@@H]1O
-6.8

Please report the measured inhibition at 1000 µM for CCCCN1[C@H](CN)[C@@H](O)[C@H](O)[C@H]1CO
60.9

Please report the measured inhibition at 1000 µM for CCCCN1[C@H](CO)[C@@H](O)[C@H](O)[C@H]1CNC(C)=O
39.3

Please report the measured inhibition at 1000 µM for CCCCN1C[C@H](C#N)[C@@H](O)[C@H](O)[C@H]1CO
-29.4

Please report the measured inhibition at 1000 µM for CCCCN(CCCC)C[C@@H]1[C@@H](O)[C@H](O)[C@@H](CO)N1CCCC
-20.5

---

# Measurement target: α-Glucosidase (yeast) (Saccharomyces cerevisiae)
# Construct: purchased Sigma
# Experiment summary: Alpha-glucosidase (yeast) inhibition assay, pH 7.4
# Assay type: biochemical
# Reported conditions: 1000 μM, pH 7.4; read-out: Percent inhibition of α-glucosidase (yeast)
Please enter yes where inhibition at 1000 µM is greater than or equal to 20%, and no where it is lower.

Reference set (4 entries):
Check the entry CCCCN1[C@H](CO)[C@@H](O)[C@H](O)[C@H]1CSc1nnnn1C : does inhibition at 1000 µM equal or exceed 20%?
no

Check the entry CCCCN1[C@H](CO)[C@@H](O)[C@H](O)[C@H]1CC#N : does inhibition at 1000 µM equal or exceed 20%?
yes

Check the entry CCCCN1[C@H](CO)[C@@H](O)[C@H](O)[C@H]1CN=[N+]=[N-] : does inhibition at 1000 µM equal or exceed 20%?
yes

Check the entry CCCCN1[C@H](CO)[C@@H](O)[C@H](O)[C@H]1COC(=O)c1ccccc1 : does inhibition at 1000 µM equal or exceed 20%?
yes

Could you now look at the following compound, please?
Check the entry CCCCN1C[C@H](Sc2nnnn2C)[C@@H](O)[C@H](O)[C@H]1CO : does inhibition at 1000 µM equal or exceed 20%?
no

---

# System: β-Glucosidase (almond)
# Experiment summary: Beta-glucosidase (almond) inhibition assay, pH 7.4
# Assay type: biochemical
# Reported conditions: 1000 μM
Value type: Percent inhibition of β-glucosidase (almond) (%)
Respond with the bare value in %.

Specify the recorded Percent inhibition of β-glucosidase (almond) for CCCCN1[C@H](CN)[C@@H](O)[C@H](O)[C@H]1CO , system: β-Glucosidase (almond).
43.1

***
Specify the recorded Percent inhibition of β-glucosidase (almond) for CCCCN1C[C@H](Sc2nnnn2C)[C@@H](O)[C@H](O)[C@H]1CO , system: β-Glucosidase (almond).
-15.8

Specify the recorded Percent inhibition of β-glucosidase (almond) for CCCCN1[C@H](CO)[C@@H](O)[C@H](O)[C@H]1CSc1nnnn1C , system: β-Glucosidase (almond).
5.7

---

# Measurement target: α-Glucosidase (yeast) (Saccharomyces cerevisiae)
# Construct: purchased Sigma
# Experiment summary: Alpha-glucosidase (yeast) inhibition assay, pH 7.4
# Format: biochemical
# Reported conditions: 100 μM, pH 7.4; read-out: Percent inhibition of α-glucosidase (yeast)
Value type: inhibition at 100 µM (%)
Respond with the bare value in %.

Please report the measured inhibition at 100 µM for CCCCNC(=O)O[C@H]1CN(CCCC)[C@H](CO)[C@@H](O)[C@@H]1O
11

Please report the measured inhibition at 100 µM for CCCCN1C[C@H](C#N)[C@@H](O)[C@H](O)[C@H]1CO
20.1

Please report the measured inhibition at 100 µM for CCCCN1[C@H](CO)[C@@H](O)[C@H](O)[C@H]1CC#N
23.5

Please report the measured inhibition at 100 µM for CCCCN1C[C@H](Sc2nnnn2C)[C@@H](O)[C@H](O)[C@H]1CO
18.1

Please report the measured inhibition at 100 µM for CCCCN1[C@H](CO)[C@@H](O)[C@H](O)[C@H]1CN=[N+]=[N-]
22.7

---

# System: β-Glucosidase (almond)
# Experiment summary: Beta-glucosidase (almond) inhibition assay, pH 7.4
# Type: biochemical
# Reported conditions: 100 μM
Percent inhibition of β-glucosidase (almond) listing for selected molecules.
Respond with the bare value in %.

Please review the following examples before continuing.
Please report the measured Percent inhibition of β-glucosidase (almond) for CCCCN1[C@H](CO)[C@@H](O)[C@H](O)[C@H]1CC#N [Example 54]
-7.8

Please report the measured Percent inhibition of β-glucosidase (almond) for CCCCN1[C@H](CN)[C@@H](O)[C@H](O)[C@H]1CO [Example 48]
6.9

Please report the measured Percent inhibition of β-glucosidase (almond) for CCCCN1C[C@H](Sc2nnnn2C)[C@@H](O)[C@H](O)[C@H]1CO [56(a)]
-3.4

Please report the measured Percent inhibition of β-glucosidase (almond) for CCCCN1C[C@H](C#N)[C@@H](O)[C@H](O)[C@H]1CO [Example 53]
-4.2

Please report the measured Percent inhibition of β-glucosidase (almond) for CCCCNC(=O)O[C@H]1CN(CCCC)[C@H](CO)[C@@H](O)[C@@H]1O [Example 36]
-2.4

***
Please report the measured Percent inhibition of β-glucosidase (almond) for CCCCCCCCCN1C[C@H](Cl)[C@@H](O)[C@H](O)[C@H]1CO [Example 29]
54.7

Please report the measured Percent inhibition of β-glucosidase (almond) for CCCCCCN1C[C@H](Cl)[C@@H](O)[C@H](O)[C@H]1CO [Example 28]
62.9

Please report the measured Percent inhibition of β-glucosidase (almond) for CCCCN(CCCC)C[C@@H]1[C@@H](O)[C@H](O)[C@@H](CO)N1CCCC [Example 49]
-5.3

Please report the measured Percent inhibition of β-glucosidase (almond) for OC[C@@H]1[C@@H](O)[C@H](O)[C@@H](Cl)CN1CCCc1ccccc1 [Example 30]
66.2

Please report the measured Percent inhibition of β-glucosidase (almond) for CCCCN1[C@H](CO)[C@@H](O)[C@H](O)[C@H]1COC(=O)c1ccccc1 [Example 58]
-7.5

Please report the measured Percent inhibition of β-glucosidase (almond) for CCCCN1[C@H](CO)[C@@H](O)[C@H](O)[C@H]1CSc1nnnn1C [56(b)]
-6

Please report the measured Percent inhibition of β-glucosidase (almond) for CCCCN1[C@H](CO)[C@@H](O)[C@H](O)[C@H]1CNC(C)=O [Example 51]
-3.8

Please report the measured Percent inhibition of β-glucosidase (almond) for CCCCN1[C@H](CO)[C@@H](O)[C@H](O)[C@H]1CN=[N+]=[N-] [Example 47]
-4.1

All values here come from patent US5612480A.
